# testedOn: Cannabinoid receptor 1 (Homo sapiens, UniProt P21554)
# Sequence (P21554 whole entry): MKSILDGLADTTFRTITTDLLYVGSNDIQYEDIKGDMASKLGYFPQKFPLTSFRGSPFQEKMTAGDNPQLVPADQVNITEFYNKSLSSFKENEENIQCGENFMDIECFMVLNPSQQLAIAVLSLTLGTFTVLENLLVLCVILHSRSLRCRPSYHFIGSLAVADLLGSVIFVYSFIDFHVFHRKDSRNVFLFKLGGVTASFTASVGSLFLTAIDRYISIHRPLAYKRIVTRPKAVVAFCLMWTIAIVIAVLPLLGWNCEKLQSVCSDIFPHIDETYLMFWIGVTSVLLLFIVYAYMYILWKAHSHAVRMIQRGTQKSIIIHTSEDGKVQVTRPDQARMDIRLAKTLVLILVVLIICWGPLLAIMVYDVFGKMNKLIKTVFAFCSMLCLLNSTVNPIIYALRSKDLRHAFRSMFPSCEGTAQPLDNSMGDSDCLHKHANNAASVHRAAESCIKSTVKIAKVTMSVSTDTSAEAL
Measured pKi, listed per entry for reference.
Units for pKi: none; it is -log10 of a concentration expressed in mol/L.

Here is how some compounds turned out for pKi.
[[record]]
compound = "CCc1nc(C(=O)NC23CC4CC(CC(C4)C2)C3)c(C)n1-c1ccccc1"
measurementkind = "pKi"
resultnumber = 5.38

[[record]]
compound = "Cc1nc(C(=O)NC[C@H]2C[C@@H]3C[C@H](C2)C3(C)C)c(C)n1-c1ccccc1"
measurementkind = "pKi"
resultnumber = 5.40

[[record]]
compound = "CCCCCOc1c(OC)ccc2cc(C(=O)NCc3ccc4c(c3)OCO4)c(=O)[nH]c12"
measurementkind = "pKi"
resultnumber = 5.41

[[record]]
compound = "Cc1nc(C(=O)NCc2ccccc2C(F)(F)F)c(C)n1-c1ccccc1"
measurementkind = "pKi"
resultnumber = 5.85

[[record]]
compound = "C[C@H](NS(C)(=O)=O)c1ccc(S(=O)(=O)c2ccc(Cl)cc2S(=O)(=O)c2ccccc2F)cc1"
measurementkind = "pKi"
resultnumber = 5.45

[[record]]
compound = "Cc1nc(C(=O)NC23CC4CC(CC(C4)C2)C3)c(C)n1-c1ccccc1"
measurementkind = "pKi"
resultnumber = 5.31

[[record]]
compound = "Cc1nc(C(=O)NC2C3CC4CC(C3)CC2C4)c(C)n1-c1ccccc1 (configuration not stated)"
measurementkind = "pKi"
resultnumber = 5.52

[[record]]
compound = "Cc1nc(C(=O)NC2C3CC4CC(C3)C2C4)c(C)n1-c1ccccc1 (configuration not stated)"
measurementkind = "pKi"
resultnumber = 5.26


Task: Fill in the blank: the reported pKi of `CCCCc1c(C(=O)NC23CC4CC(CC(C4)C2)C3)nc(C)n1-c1ccccc1` is ____.
Output: 5.70

* * *

# testedOn: Cannabinoid receptor 2 (Homo sapiens, UniProt P34972)
# Sequence (P34972 whole entry): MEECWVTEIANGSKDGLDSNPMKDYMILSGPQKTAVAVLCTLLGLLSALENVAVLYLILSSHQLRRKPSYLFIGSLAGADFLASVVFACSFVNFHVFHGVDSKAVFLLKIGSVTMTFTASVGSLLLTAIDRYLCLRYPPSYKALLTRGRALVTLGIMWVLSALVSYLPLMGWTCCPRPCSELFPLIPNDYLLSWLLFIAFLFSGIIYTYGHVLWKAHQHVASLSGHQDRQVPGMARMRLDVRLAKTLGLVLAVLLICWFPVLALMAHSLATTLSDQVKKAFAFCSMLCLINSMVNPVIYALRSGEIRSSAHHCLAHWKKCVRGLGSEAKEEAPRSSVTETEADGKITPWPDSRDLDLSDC
# methodSummary: Inverse agonist activity at human CB2 receptor assessed as stimulation of cAMP accumulation after 20 mins
Measured EC50, listed per entry for reference.
Dear colleague, please return just the value in nM, with no unit written.

Here is how some compounds turned out for EC50.
[[record]]
compound = "Cc1nc(C(=O)NC2C3CC4CC(C3)CC2C4)c(C)n1-c1ccccc1 (stereo not given)"
resultnumber = 6.31

[[record]]
compound = "O=C(NC12CC3CC(CC(C3)C1)C2)c1nc(Cl)n(-c2ccccc2)c1Cl"
resultnumber = 79.4

[[record]]
compound = "CCc1nc(C(=O)NC23CC4CC(CC(C4)C2)C3)c(C)n1-c1ccccc1"
resultnumber = 1.58

[[record]]
compound = "CCc1nc(C(=O)NC23CC4CC(CC(C4)C2)C3)cn1-c1ccccc1"
resultnumber = 12.6


Task: Fill in the blank: the reported EC50 of `Cc1nc(C(=O)NC23CC4CC(CC(C4)C2)C3)c(C)n1-c1ccccc1` is ____.
Output: 0.794

* * *

# Species on record: Homo sapiens
# methodSummary: Selectivity ratio of Ki for human CB1 to Ki for human CB2
measurementKind: Ratio
Write no unit; give the number alone.

Here is how some molecules turned out for Ratio.
[[record]]
molecule = "Cc1nc(C(=O)NC2C3CC4CC(C3)CC2C4)c(C)n1-c1ccccc1 (stereo unspecified)"
resultnumber = 218

[[record]]
molecule = "Cc1nc(C(=O)NC[C@H]2C[C@@H]3C[C@H](C2)C3(C)C)c(C)n1-c1ccccc1"
resultnumber = 200

[[record]]
molecule = "Cc1nc(C(=O)NCc2ccccc2C(F)(F)F)c(C)n1-c1ccccc1"
resultnumber = 406

[[record]]
molecule = "C[C@H](NS(C)(=O)=O)c1ccc(S(=O)(=O)c2ccc(Cl)cc2S(=O)(=O)c2ccccc2F)cc1"
resultnumber = 4420


Task: Fill in the blank: the reported Ratio of `CCc1nc(C(=O)NC23CC4CC(CC(C4)C2)C3)c(C)n1-c1ccccc1` is ____.
Output: 2600

Task: Continue with `Cc1nc(C(=O)NC23CC4CC(CC(C4)C2)C3)c(C)n1-c1ccccc1`
Output: 1810

Task: Continue with Cc1nc(C(=O)NC2C3CC4CC(C3)C2C4)c(C)n1-c1ccccc1 (stereo unspecified)
Output: 561
